Would you kindly list IC50 for each of these molecules?
molecular target: activated ERK2 (Homo sapiens (Human)); assay: Activated ERK2 kinase assay (AlphaScreen, ERKtide peptide phosphorylation); format: biochemical; details: […] ERK2, 200 nM ERKtide peptide, 35 μM ATP, 30 min preincubation; read-out: ERK2 IC50
Sequence (P28482 whole entry): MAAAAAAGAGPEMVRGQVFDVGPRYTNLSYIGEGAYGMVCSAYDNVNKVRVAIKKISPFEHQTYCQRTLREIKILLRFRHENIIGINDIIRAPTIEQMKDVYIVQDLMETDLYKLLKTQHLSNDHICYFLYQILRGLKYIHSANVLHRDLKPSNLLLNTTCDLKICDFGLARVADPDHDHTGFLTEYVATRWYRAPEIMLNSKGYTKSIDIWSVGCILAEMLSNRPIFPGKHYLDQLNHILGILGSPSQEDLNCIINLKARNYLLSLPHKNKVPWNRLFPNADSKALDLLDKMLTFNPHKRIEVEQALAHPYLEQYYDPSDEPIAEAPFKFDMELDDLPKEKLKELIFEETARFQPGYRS
Answers are plain numbers, in nM.

QUERY: Find the recorded IC50 belonging to Cn1cc(-c2cccc(CNC(=O)N3Cc4nc(NC5CCOCC5)ncc4C3(C)C)c2)cn1 and report it.
RESULT: 91

QUERY: Look at this molecule and give its reported IC50. CC1(C)c2cnc(NC3CCOCC3)nc2CN1C(=O)NCc1nc(-c2ccc(F)cc2)cs1
RESULT: 131

For each listed entry, give its IC50.
1. CC1(C)c2cnc(N[C@H]3CC[C@H](C#N)CC3)nc2CN1C(=O)N[C@H](CO)c1ccccc1
2. CC1(C)c2cnc(NC3CCC(F)(F)CC3)nc2CN1C(=O)N[C@H](CO)c1ccccc1

RESULT:
1: 114; 2: 146
